measurement.description: qHTS assay to identify small molecule agonists of the constitutive androstane receptor (CAR) signaling pathway - cell viability counter screen (AID 1224836); note: nearly all actives have a fitted effect of over 45% in size
stated.conditions: HepG2-CYP2B6-hCAR viability, CellTiter-Fluor, 23 h, PK11195 added to every well; series mostly up to 92.4 µM
Inconclusive results are not listed. Active and inactive are the calls of the source. Calls come from the whole dose curve; as a rule, active = well fitted cell-killing curve with a large enough effect in the repeat runs; inconclusive = weak or mixed curves, or effect the other way; inactive = flat fitted curve, though single readings scatter.
Your answer must be one of the following: true (1) = active, false (0) = inactive

Hi team, can someone confirm the assay call for Oc1ccc(Cl)c(Cl)c1 ?
false (0)

Hi team, can someone confirm the assay call for [Cl][Hg][c]1ccccc1 ?
true (1)

Hi team, can someone confirm the assay call for CC(=O)[O-].CC(=O)[O-].O.O.O.[Pb+2] ?
false (0)

Hi team, can someone confirm the assay call for CC(=O)O.CC(=O)O.CC(=O)O.CC(=O)O.CC(=O)O.CC(=O)O.CC(=O)O.O.O.[Cr].[Cr].[Cr] ?
false (0)

Hi team, can someone confirm the assay call for O=c1[nH]c2cc(Cl)ccc2n1C1CCNCC1 ?
false (0)

Hi team, can someone confirm the assay call for CC(C)N(C(=O)SC/C(Cl)=C/Cl)C(C)C ?
false (0)

Hi team, can someone confirm the assay call for Oc1cc(Cl)cc(Cl)c1 ?
false (0)

Hi team, can someone confirm the assay call for CC(C)C(Nc1ccc(C(F)(F)F)cc1Cl)C(=O)OC(C#N)c1cccc(Oc2ccccc2)c1 (stereo not drawn) ?
false (0)

Hi team, can someone confirm the assay call for COC(=O)c1ccccc1S(=O)(=O)NC(=O)Nc1nc(C)nc(OC)n1 ?
false (0)

Hi team, can someone confirm the assay call for N#CCCl ?
false (0)

Hi team, can someone confirm the assay call for CCc1cccc(C)c1N(C(=O)CCl)[C@@H](C)COC ?
false (0)

Hi team, can someone confirm the assay call for CCOP(=O)(OCC)Oc1nc(Cl)c(Cl)cc1Cl ?
false (0)

Hi team, can someone confirm the assay call for CN/C(=N\[N+](=O)[O-])NCc1cnc(Cl)s1 ?
false (0)

###

measurement.description: qHTS assay to identify small molecule agonists of the hypoxia (HIF-1) signaling pathway - cell viability counter screen (AID 1224844); note: nearly all actives have a fitted effect of over 50% in size; note: potency is the fitted concentration of half-maximal effect
stated.conditions: HRE-bla ME-180 viability, CellTiter-Glo luminescence, 17 h; series mostly up to 76.8 µM
From the text: National Center for Advancing Translational Sciences [NCATS] NIH Chemical Genomics Center [NCGC] U.S. Environmental Protection Agency [EPA] National Institutes of Environmental Health Sciences [NIEHS] National Toxicology Program [NTP] U.S. Food and Drug Administration [FDA] Hypoxia-inducible factor-1 (HIF-1) is the major hypoxia-regulated transcription factor that controls cellular responses to low oxygen concentration. […]
Inconclusive results are not listed. The source made the active and inactive calls. The call rests on the fitted dose curve.
measured.property: Potency

Recorded results for 8 molecules are shown here.
>>> value_measured("CCn1cc[n+](C)c1 (tested in a mixture with another compound)")
"inactive"
>>> value_measured("CC(O)C(=O)[O][Hg][c]1ccccc1 (configuration not stated)")
"1.38 µM (active)"
>>> value_measured("CC(C)Br")
"inactive"
>>> value_measured("O=C(N[C@@H]1N=C(c2ccccc2F)c2cccc3c2N(CC3)C1=O)c1cc2ccccc2[nH]1")
"inactive"
>>> value_measured("N#Cc1sc2c(=O)c3ccccc3c(=O)c=2sc1C#N")
"4.9 µM (active)"
>>> value_measured("N#Cc1c2ccccc2cc2ccccc12")
"inactive"
>>> value_measured("c1ccc(Nc2ccc(Nc3ccccc3)cc2)cc1")
"inactive"
>>> value_measured("CC(=O)[O-].CC(=O)[O-].O.O.O.[Pb+2]")
"inactive"

Potency measured on Clc1ccc(C(c2ccc(Cl)cc2)C(Cl)Cl)cc1 = 49 µM (active)

Potency measured on Cc1c([N+](=O)[O-])cc2c(c1[N+](=O)[O-])C(C)(C)CC2(C)C = inactive

Potency measured on CN1C2CCC(C)(C)C1CC(OC(=O)C(O)(c1cccs1)c1cccs1)C2 (configuration not stated) = inactive

Potency measured on CSSC = inactive

Potency measured on CN = inactive

Potency measured on N#CCCl = inactive

Potency measured on COC(=O)C(C)N(C(=O)c1ccco1)c1c(C)cccc1C (configuration not stated) = inactive

Potency measured on C[C@]12Cc3cn[nH]c3C[C@@H]1CC[C@@H]1[C@@H]2CC[C@@]2(C)[C@H]1CC[C@]2(C)O = 8.49 µM (active)

Potency measured on CC1CN1 (configuration not stated) = inactive

Potency measured on CCOC(=O)CCN(SN(C)C(=O)Oc1cccc2c1OC(C)(C)C2)C(C)C = inactive

Potency measured on [O]=[Cr][O][Cr]=[O] = inactive

Potency measured on N#CC(C#N)=NNc1cccc(Cl)c1 = 3.09 µM (active)

Potency measured on CSC(C)(C)/C=N/O = inactive

Potency measured on Cc1cccc(Cc2cnc[nH]2)c1C = inactive

###

measurement.description: A CellTox Green Cytotoxicity Assay to monitor cytotoxicity in HEK293 cells - 32 hour (AID 1224881); note: nearly all actives have a fitted effect of over 40% in size
stated.conditions: CellTox Green fluorescence; series mostly up to 76.8 µM
Records with an inconclusive call do not appear. Active and inactive are the calls of the source. Calls follow the shape of the dose curve; as a rule, active = well fitted activation curve with a large enough effect in the repeat runs; inconclusive = weak or mixed curves; inactive = flat fitted curve, though single readings scatter.
Your answer must be one of the following: label 1 for active, label 0 for inactive

Hi team, can someone confirm the assay call for CN/C(=N\[N+](=O)[O-])NCc1cnc(Cl)s1 ?
label 0

Hi team, can someone confirm the assay call for CC(O)C(=O)[O][Hg][c]1ccccc1 (configuration not stated) ?
label 1

Hi team, can someone confirm the assay call for c1cc[n+]2c(c1)-c1cccc[n+]1CC2 ?
label 0

Hi team, can someone confirm the assay call for ClCBr ?
label 0

Hi team, can someone confirm the assay call for O=C(O)[C@H](O)[C@@H](O)C(=O)O ?
label 0

Hi team, can someone confirm the assay call for CCN(CC)CCN1C(=O)CN=C(c2ccccc2F)c2cc(Cl)ccc21 ?
label 0

Hi team, can someone confirm the assay call for CCNc1nc(NC(C)C(C)C)nc(SC)n1 (configuration not stated) ?
label 0

Hi team, can someone confirm the assay call for NC(=O)C(Cl)Cl ?
label 0

Hi team, can someone confirm the assay call for CCOP(=O)(Sc1ccccc1)Sc1ccccc1 ?
label 0

Hi team, can someone confirm the assay call for [Cl-].[Cl-].[Sn+2] ?
label 0

Hi team, can someone confirm the assay call for O=C(N[C@@H]1N=C(c2ccccc2F)c2cccc3c2N(CC3)C1=O)c1cc2ccccc2[nH]1 ?
label 1

Hi team, can someone confirm the assay call for CCN(CC)CCc1c[nH]c2ccccc12 ?
label 0

###

measurement.description: qHTS RealTime-Glo MT Cell Viability Assay in HepG2 cells - 8 hour (AID 1224873); note: nearly all actives have a fitted effect of over 55% in size
stated.conditions: RealTime-Glo luminescence; series mostly up to 76.8 µM
Results filed as inconclusive are left out. Active and inactive are the calls of the source. Calls follow the shape of the dose curve; as a rule, active = well fitted cell-killing curve with a large enough effect in the repeat runs; inconclusive = weak or mixed curves; inactive = flat fitted curve, though single readings scatter.
Your answer must be one of the following: active, inactive

Hi team, can someone confirm the assay call for O=S(=O)(NS(=O)(=O)C(F)(F)F)C(F)(F)F ?
inactive

Hi team, can someone confirm the assay call for ClC(Cl)C(Cl)(Cl)Cl ?
inactive

Hi team, can someone confirm the assay call for OCC(Br)CBr (stereo not drawn) ?
inactive

Hi team, can someone confirm the assay call for CC(Cl)CCl (stereo not drawn) ?
inactive

Hi team, can someone confirm the assay call for [F][Sn]([c]1ccccc1)([c]1ccccc1)[c]1ccccc1 ?
active

Hi team, can someone confirm the assay call for COP(=O)(OC)Oc1ccc([N+](=O)[O-])cc1 ?
inactive

Hi team, can someone confirm the assay call for C#CC1(O)CCCCC1 ?
inactive

Hi team, can someone confirm the assay call for CN/C(=N\[N+](=O)[O-])NCc1cnc(Cl)s1 ?
inactive

###

measurement.description: qHTS assay to test for compound auto fluorescence at 590 nm (red) in HEK293 cell free culture (AID 720683); note: % is set by controls: 0 for no effect and ±100 for the full control effect
stated.conditions: cell-free medium autofluorescence, Ex540/Em590 red; series mostly up to 91.3 µM
Calls of active or inactive are those of the source. The call rests on the fitted dose curve; in most records, active means well fitted curve in the direction sought with a large enough effect in the repeat runs; inconclusive means weak or mixed curves; inactive means flat fitted curve, though single readings scatter.
measured.property: fluorescence, % of fluorescent control

Recorded results for 6 compounds are shown here.
>>> value_measured("[Cl-].[Cl-].[Cl-].[Yb+3]")
"inactive"
>>> value_measured("CCCCC/C=C\\C/C=C\\C/C=C\\C/C=C\\CCCC(=O)NCC(=O)O")
"0.173% [at 3.72 µM] (inactive)"
>>> value_measured("[O]=[Cr][O][Cr]=[O]")
"inactive"
>>> value_measured("CCCCCCC[CH2][Sn]([Cl])([Cl])[CH2]CCCCCCC")
"inactive"
>>> value_measured("CCCCN(CCCC)C(=S)S")
"inactive"
>>> value_measured("CNC(=O)O/N=C(\\C)C(C)S(C)(=O)=O (configuration not stated)")
"inactive"

fluorescence, % of fluorescent control measured on Nc1nc(N)c(N)c(N)n1 = inactive

###

measurement.description: qHTS assay to identify small molecule agonists of the estrogen related receptor (ERR) signaling pathway from Tox21 library (AID 1224849); note: % is set by controls: 0 for no effect and ±100 for the full control effect; nearly all actives have a fitted effect of over 15% in size
stated.conditions: ERR reporter cell line, ONE-Glo luciferase, 18 h; at 92.4 µM (top of the series) unless noted
Procedure: National Center for Advancing Translational Sciences [NCATS] NIH Chemical Genomics Center [NCGC] U.S. Environmental Protection Agency [EPA] National Institutes of Environmental Health Sciences [NIEHS] National Toxicology Program [NTP] […] The ERR cells were dispensed at 2,000 cells/5 ul/well in 1536-well white plates using a Multidrop dispenser. […] After 30-minute incubation at room temperature, the luminescence intensity in the plates was measured using a ViewLux plate reader.
The source made the active and inactive calls. Calls follow the shape of the full dose curve.
measured.property: activity change, positive = activation

activity change, positive = activation measured on Cc1ccn2nc(S(=O)(=O)Nc3c(F)cccc3F)nc2n1 = 1.87% (inactive)

activity change, positive = activation measured on CC1(C)C(C=C(Cl)Cl)C1C(=O)OC(C#N)c1ccc(F)c(Oc2ccccc2)c1 (stereo unspecified) = -26.4% (inactive)

activity change, positive = activation measured on Nc1nc(N)c(N)c(N)n1 = 0.198% (inactive)

activity change, positive = activation measured on Cc1c([N+](=O)[O-])cc2c(c1[N+](=O)[O-])C(C)(C)CC2(C)C = -30.3% (inactive)

activity change, positive = activation measured on O=c1c2ccccc2c(=O)c2c1cc(Cl)c1[nH]c3c([nH]c12)c(Cl)cc1c(=O)c2ccccc2c(=O)c13 = -7.42% (inactive)

activity change, positive = activation measured on Cc1ccccc1OP(=O)(Oc1ccccc1C)Oc1ccccc1C = -4.53% (inactive)

activity change, positive = activation measured on CCOP(=O)(OCC)Oc1cc(C)nc(C(C)C)n1 = -6.77% (inactive)

activity change, positive = activation measured on [F][Sn]([c]1ccccc1)([c]1ccccc1)[c]1ccccc1 = -81.3% (inactive)

activity change, positive = activation measured on N#Cc1c[nH]cc1-c1cccc2c1OC(F)(F)O2 = -48.5% (inactive)

activity change, positive = activation measured on Oc1cc(Cl)cc(Cl)c1 = -48.8% (inactive)

activity change, positive = activation measured on CC(C)(C)c1ccc(OP(=O)(Oc2ccccc2)Oc2ccccc2)cc1 = -31.3% (inactive)

activity change, positive = activation measured on COC(=O)/C=C(\C)OP(=O)(OC)OC = -31.3% (inactive)

activity change, positive = activation measured on CCC[CH2][Sn]([CH2]CCC)([CH2]CCC)[CH2]CCC = -63.4% (inactive)

activity change, positive = activation measured on CC(C)NCC(O)c1ccccc1Cl (stereo unspecified) = 0.518% [at 42.5 µM] (inactive)

activity change, positive = activation measured on Oc1ccc(Cl)c(Cl)c1 = -11.7% (inactive)

activity change, positive = activation measured on O=c1[nH]c2cc(Cl)ccc2n1C1CCNCC1 = 0.0547% [at 42.5 µM] (inactive)

activity change, positive = activation measured on CCCCN(CCCC)C(=S)[S-].CCCCN(CCCC)C(=S)[S-].[Ni+2] = -0.422% [at 42.5 µM] (inactive)

activity change, positive = activation measured on CCOP(=S)(NC(C)C)Oc1ccccc1C(=O)OC(C)C (stereo unspecified) = -39.6% (inactive)

activity change, positive = activation measured on CN1CCc2cc3c(cc2C1O)OCO3 (stereo unspecified) = 0.659% (inactive)

activity change, positive = activation measured on CC(Cc1ccc2c(c1)OCO2)NO (stereo unspecified) = -3.14% (inactive)

activity change, positive = activation measured on COP(=S)(OC)Oc1ccc([N+](=O)[O-])c(C)c1 = -19.2% (inactive)

activity change, positive = activation measured on CCCCON=O = -4.4% (inactive)

activity change, positive = activation measured on O=[N+]([O-])c1ccccc1-c1ccccc1 = -1.13% (inactive)

activity change, positive = activation measured on CCC1COC(Cn2cncn2)(c2ccc(Cl)cc2Cl)O1 (stereo unspecified) = -57.5% (inactive)

activity change, positive = activation measured on CSSC = -6.7% (inactive)

activity change, positive = activation measured on CCc1cccc(C)c1N(C(=O)CCl)[C@@H](C)COC = -67.3% (inactive)

meta.source: PubChem BioAssay (Tox21)
